Target: ORP2 (Homo sapiens, UniProt Q9H1P3)
Sequence (Q9H1P3 49-480): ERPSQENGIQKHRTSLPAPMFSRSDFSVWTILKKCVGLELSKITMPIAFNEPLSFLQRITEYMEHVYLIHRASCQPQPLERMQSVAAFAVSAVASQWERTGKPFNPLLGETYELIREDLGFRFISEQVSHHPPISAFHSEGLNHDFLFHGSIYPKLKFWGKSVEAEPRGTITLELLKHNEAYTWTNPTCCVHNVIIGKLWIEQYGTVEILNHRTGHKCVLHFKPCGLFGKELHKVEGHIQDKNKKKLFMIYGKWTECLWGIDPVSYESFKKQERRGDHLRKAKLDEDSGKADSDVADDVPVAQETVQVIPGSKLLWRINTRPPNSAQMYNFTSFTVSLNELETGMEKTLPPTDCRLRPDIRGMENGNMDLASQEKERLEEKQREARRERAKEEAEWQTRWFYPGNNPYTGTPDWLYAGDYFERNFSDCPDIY
Reported IC50 values for a set of molecules

{"MOLECULE": "CC12CCC3CC1CCC21C(=Nc2ccc(N4CCOCC4)cc21)O3 (racemic) [Compound 19a]", "IC50": "> 80 µM"}
{"MOLECULE": "CC12CCC3CC1CCC21C(=Nc2ccc(N4CCOCC4)cc21)O3 (single isomer, unassigned; (-)) [(−)-19a]", "IC50": "> 50 µM"}
{"MOLECULE": "C[C@]12CC[C@@H]3C[C@H]1CC[C@@]21C(=Nc2ccc(Br)cc21)O3 (racemic) [Compound 15b]", "IC50": "7.14 µM"}
{"MOLECULE": "CCCCN(C)c1ccc2c(c1)[C@@]13CC[C@@H]4C[C@@H](CC[C@@]41C)OC3=N2 [Compound 19d]", "IC50": "> 80 µM"}
{"MOLECULE": "CC12CCC3CC1CCC21C(=Nc2ccc(Br)cc21)O3 (single isomer, unassigned; (+)) [(+)-15b]", "IC50": "> 80 µM"}
{"MOLECULE": "CC12CCC3CC1CCC21C(=Nc2ccc(N4CCOCC4)cc21)O3 (single isomer, unassigned; (+)) [(+)-19a]", "IC50": "> 80 µM"}
{"MOLECULE": "CCCCCNc1ccc2c(c1)[C@@]13CC[C@@H]4C[C@@H](CC[C@@]41C)OC3=N2 [Compound 19c]", "IC50": "> 80 µM"}
